target.or.system: HCV NS5B RdRp genotype 1b (Hepatitis C virus genotype 1b, UniProt Q9WMX2)
Construct: The protein was expressed with an 18 amino acid C-terminal truncation to enhance the solubility; made in house; host or cells: E. coli BL21(DE3), pET21a vector
Sequence (Q9WMX2 2420-2992): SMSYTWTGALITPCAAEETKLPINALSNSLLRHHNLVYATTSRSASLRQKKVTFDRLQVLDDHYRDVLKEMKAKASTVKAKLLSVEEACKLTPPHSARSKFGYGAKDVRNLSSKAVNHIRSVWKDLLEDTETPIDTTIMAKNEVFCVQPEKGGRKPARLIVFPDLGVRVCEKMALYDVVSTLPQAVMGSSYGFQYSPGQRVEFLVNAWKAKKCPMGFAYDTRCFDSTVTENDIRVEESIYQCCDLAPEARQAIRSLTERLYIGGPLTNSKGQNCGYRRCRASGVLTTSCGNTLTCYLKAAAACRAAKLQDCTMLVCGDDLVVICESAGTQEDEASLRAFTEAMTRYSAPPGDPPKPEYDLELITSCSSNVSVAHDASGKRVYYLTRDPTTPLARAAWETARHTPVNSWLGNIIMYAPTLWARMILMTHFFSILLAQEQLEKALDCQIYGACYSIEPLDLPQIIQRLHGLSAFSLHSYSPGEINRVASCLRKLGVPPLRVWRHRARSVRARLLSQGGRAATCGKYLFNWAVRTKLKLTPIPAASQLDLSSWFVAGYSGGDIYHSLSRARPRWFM
test.details: Standard HCV NS5B RdRp enzyme assay
Assay type: biochemical
applied.conditions: Table 1b; HCV NS5B RdRp genotype 1b; read-out: IC50
Entries and their IC50 values follow.

Entry `CNC(=O)c1c(-c2ccc(F)cc2)oc2ccc(-c3cc(OCC#N)cc(C(=O)NCC(C)C)c3)cc12` , IC50 reported as < 250 nM

Entry `CNC(=O)c1c(-c2ccc(F)cc2)oc2ccc(-c3cc(C(=O)NC4(c5noc(C)n5)CC4)ccc3C)cc12` , IC50 reported as < 20 nM

Entry `CNC(=O)c1c(-c2ccc(C)cc2)oc2ccc(-c3cc(C(=O)NC4(c5nc(COC)no5)CC4)ccc3C)cc12` , IC50 reported as < 250 nM

Entry `CNC(=O)c1c(-c2ccc(F)cc2)oc2ccc(-c3cc(C(=O)NC(C)(C)CN4CCOCC4)ccc3C)cc12` , IC50 reported as < 250 nM

Reference source: patent US8309558B2
